Target: Ba/F3 EGFR Wild-type (Homo sapiens, UniProt P00533)
Sequence (P00533 whole entry, change not shown): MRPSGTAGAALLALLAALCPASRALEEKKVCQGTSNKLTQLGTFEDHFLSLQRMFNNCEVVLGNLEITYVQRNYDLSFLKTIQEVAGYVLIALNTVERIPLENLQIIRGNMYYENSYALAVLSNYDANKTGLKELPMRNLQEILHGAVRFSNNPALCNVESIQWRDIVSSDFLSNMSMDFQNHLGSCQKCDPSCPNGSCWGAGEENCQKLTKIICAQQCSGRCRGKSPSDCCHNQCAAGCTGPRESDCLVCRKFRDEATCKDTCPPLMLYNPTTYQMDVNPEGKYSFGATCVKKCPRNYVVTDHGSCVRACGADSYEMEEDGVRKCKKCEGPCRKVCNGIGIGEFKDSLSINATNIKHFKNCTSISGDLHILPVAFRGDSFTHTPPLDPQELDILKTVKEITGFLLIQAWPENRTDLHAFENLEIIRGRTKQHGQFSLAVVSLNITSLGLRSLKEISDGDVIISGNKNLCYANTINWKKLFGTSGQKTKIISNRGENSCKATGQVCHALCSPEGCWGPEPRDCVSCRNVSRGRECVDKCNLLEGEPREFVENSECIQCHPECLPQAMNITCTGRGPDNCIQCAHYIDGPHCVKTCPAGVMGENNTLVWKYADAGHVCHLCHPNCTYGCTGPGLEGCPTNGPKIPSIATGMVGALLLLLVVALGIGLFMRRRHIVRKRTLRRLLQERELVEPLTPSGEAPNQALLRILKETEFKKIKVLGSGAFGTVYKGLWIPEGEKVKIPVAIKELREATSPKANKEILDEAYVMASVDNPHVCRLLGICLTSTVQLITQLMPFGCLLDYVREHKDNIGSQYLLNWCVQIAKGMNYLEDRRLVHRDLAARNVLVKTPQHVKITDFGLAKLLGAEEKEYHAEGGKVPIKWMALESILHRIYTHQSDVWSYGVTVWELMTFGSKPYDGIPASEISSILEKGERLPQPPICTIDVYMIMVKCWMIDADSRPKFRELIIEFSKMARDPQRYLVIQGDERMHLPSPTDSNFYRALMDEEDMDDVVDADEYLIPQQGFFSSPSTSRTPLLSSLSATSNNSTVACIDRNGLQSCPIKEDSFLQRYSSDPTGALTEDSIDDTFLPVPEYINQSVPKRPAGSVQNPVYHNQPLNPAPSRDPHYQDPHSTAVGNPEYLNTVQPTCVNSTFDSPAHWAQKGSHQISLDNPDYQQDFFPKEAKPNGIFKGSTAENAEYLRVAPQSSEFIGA
Test: CellTiter-Glo cell viability, Ba/F3 EGFR wild-type cells
Format: cell-based, murine
Details: 72 hours, read-out: Ba/F3 EGFR mutant cell (IC50, nM) WT
Procedure: In order to evaluate an inhibitory ability on wild-type Ba/F3 EGFR and Ba/F3 EGFR mutations in Ba/F3 cell lines by the compounds of Formula 1, the experiment was carried out as described below. The measurement of activities on Ba/F3 cells harboring wild-type EGFR and EGFR mutants by the compounds of the present invention were determined utilizing the CELLTITER-GLO™ system from Promega, as follows. […]
Field: GI50. Provide a value for each of the molecules that follow.

Asked: Query GI50 for CCc1cc(Nc2ncc(Br)c(Nc3ccc4nccnc4c3N(C)S(C)(=O)=O)n2)c(OC)cc1N1CCC(N2CCCCC2)CC1 [Example A44]
Given back: > 2000 nM

Asked: Query GI50 for COc1cc(C2CCNCC2)ccc1Nc1ncc(Cl)c(Nc2ccc3nccnc3c2NS(C)(=O)=O)n1 [Example B15]
Given back: > 2000 nM

Asked: Query GI50 for CC(C)Oc1cc(C2CCNCC2)ccc1Nc1ncc(Cl)c(Nc2ccc3nccnc3c2NS(C)(=O)=O)n1 [Example B22]
Given back: > 2000 nM

###

Field: GI50. Provide a value for each of the compounds that follow.
Molecular target: Ba/F3 EGFR Del19/T790M/C797S mutants (Homo sapiens, UniProt P00533, T790M/C797S, cells depend on it, form not given)
Sequence (P00533 with tags, fused parts or gaps DEL746-750/T790M/C797S, form open): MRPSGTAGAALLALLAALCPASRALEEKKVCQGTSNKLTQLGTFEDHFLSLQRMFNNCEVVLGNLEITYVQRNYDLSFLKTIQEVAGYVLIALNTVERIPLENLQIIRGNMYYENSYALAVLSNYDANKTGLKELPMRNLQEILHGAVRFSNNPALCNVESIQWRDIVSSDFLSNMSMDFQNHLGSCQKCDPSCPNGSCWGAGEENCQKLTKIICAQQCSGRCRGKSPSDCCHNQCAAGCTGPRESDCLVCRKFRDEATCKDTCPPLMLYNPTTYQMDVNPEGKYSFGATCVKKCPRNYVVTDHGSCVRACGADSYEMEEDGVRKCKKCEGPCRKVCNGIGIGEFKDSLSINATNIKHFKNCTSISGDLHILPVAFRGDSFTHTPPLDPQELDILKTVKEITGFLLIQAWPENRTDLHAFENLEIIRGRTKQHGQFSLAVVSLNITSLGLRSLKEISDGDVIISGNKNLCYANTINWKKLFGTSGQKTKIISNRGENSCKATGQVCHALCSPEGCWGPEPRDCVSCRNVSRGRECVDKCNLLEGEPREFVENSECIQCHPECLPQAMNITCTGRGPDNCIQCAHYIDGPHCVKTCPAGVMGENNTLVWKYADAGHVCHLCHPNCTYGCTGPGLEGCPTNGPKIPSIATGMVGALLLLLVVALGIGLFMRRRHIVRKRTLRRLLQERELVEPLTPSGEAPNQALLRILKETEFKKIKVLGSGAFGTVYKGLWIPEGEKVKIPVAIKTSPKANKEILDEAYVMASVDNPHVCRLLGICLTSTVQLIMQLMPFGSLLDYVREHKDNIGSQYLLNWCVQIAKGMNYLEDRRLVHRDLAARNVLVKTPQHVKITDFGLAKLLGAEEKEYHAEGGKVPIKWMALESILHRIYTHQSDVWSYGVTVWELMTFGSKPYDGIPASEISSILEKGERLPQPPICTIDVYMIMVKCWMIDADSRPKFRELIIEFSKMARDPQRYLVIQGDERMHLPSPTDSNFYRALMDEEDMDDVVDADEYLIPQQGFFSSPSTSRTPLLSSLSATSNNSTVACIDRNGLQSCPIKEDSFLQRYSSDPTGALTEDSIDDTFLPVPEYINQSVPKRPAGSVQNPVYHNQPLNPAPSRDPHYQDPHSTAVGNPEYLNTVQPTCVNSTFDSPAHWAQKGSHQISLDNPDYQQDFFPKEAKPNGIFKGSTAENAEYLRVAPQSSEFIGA
Assay: CellTiter-Glo cell viability, Ba/F3 EGFR Del19/T790M/C797S cells
Assay type: cell-based, murine
Details: 72 hours, read-out: Ba/F3 EGFR mutant cell (IC50, nM) D/T/C

Asked: Query GI50 for COc1cc(N2CCC(N(C)C)CC2)c(C)cc1Nc1ncc(C(F)(F)F)c(Nc2ccc3nccnc3c2NS(C)(=O)=O)n1 [Example B9]
Given back: > 2000 nM

Asked: Query GI50 for COc1cc(C2CCNCC2)ccc1Nc1ncc(F)c(Nc2ccc3nccnc3c2NS(C)(=O)=O)n1 [Example B17]
Given back: > 2000 nM

Asked: Query GI50 for CC(C)Oc1cc(C2CCNCC2)ccc1Nc1ncc(Cl)c(Nc2ccc3nccnc3c2NS(C)(=O)=O)n1 [Example B22]
Given back: > 2000 nM

###

Target: Ba/F3 EGFR L858R/T790M/C797S mutants (Homo sapiens, UniProt P00533, T790M/C797S/L858R, cells depend on it)
Sequence (P00533 whole entry T790M/C797S/L858R): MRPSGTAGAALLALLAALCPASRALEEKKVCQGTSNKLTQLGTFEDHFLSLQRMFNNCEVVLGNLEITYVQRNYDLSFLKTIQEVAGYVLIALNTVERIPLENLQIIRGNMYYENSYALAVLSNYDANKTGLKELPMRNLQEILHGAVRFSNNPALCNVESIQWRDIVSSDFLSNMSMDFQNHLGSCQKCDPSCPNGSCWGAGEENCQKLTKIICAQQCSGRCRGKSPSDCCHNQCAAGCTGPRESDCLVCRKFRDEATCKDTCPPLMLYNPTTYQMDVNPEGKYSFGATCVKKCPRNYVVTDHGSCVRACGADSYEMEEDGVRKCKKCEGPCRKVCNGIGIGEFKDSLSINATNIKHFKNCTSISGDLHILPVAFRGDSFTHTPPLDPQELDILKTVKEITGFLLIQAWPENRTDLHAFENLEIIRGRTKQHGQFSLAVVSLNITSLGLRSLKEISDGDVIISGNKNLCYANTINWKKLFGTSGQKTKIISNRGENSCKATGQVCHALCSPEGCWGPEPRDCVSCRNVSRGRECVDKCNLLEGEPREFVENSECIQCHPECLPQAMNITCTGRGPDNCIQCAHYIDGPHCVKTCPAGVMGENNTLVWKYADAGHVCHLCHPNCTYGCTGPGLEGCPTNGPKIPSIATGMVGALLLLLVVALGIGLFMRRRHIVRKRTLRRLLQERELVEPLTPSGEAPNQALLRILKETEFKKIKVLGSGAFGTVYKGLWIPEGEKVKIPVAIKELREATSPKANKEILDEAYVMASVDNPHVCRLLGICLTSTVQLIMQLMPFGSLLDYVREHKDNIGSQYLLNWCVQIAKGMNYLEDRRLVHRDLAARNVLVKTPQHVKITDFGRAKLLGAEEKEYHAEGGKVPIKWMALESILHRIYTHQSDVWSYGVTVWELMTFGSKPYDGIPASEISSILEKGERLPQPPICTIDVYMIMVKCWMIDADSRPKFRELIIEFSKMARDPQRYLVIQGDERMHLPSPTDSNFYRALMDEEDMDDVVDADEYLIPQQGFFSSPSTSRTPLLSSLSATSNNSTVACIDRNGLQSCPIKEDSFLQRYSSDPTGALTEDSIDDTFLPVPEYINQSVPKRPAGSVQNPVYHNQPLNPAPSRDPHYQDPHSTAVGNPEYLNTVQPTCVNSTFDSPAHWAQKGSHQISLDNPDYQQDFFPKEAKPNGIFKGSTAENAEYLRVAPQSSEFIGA
Experiment: CellTiter-Glo cell viability, Ba/F3 EGFR L858R/T790M/C797S cells
Assay type: cell-based, murine
Settings: 72 hours, read-out: Ba/F3 EGFR mutant cell (IC50, nM) L/T/C
Field: GI50. Provide a value for each of the compounds that follow.
Please respond with the number in nM and leave the unit unwritten.

Asked: Query GI50 for `CCc1cc(Nc2ncc(Cl)c(Nc3ccc4nccnc4c3N(C)S(C)(=O)=O)n2)c(OC)cc1N1CC2(C1)CN(C(C)C)C2`
Given back: 40

Asked: Query GI50 for `CCc1cc(Nc2ncc(Br)c(Nc3ccc4nccnc4c3NS(C)(=O)=O)n2)c(OC)cc1N1CCC(N2CCOCC2)CC1`
Given back: 17

Asked: Query GI50 for `COc1cc(N2CCC(N3CCOCC3)CC2)c(C)cc1Nc1ncc(Br)c(Nc2ccc3nccnc3c2NS(C)(=O)=O)n1`
Given back: 49

Asked: Query GI50 for CCc1cc(Nc2ncc(Cl)c(Nc3ccc4nccnc4c3N(C)S(C)(=O)=O)n2)c(OC)cc1N1CCC(N2CC3CCC2CN3C)CC1 (stereo not drawn)
Given back: 64

Asked: Query GI50 for `CN[C@@H]1CN(c2ccc(Nc3ncc(Cl)c(Nc4ccc5nccnc5c4NS(C)(=O)=O)n3)c(OC)c2)C[C@H]1F`
Given back: 1320

Asked: Query GI50 for `COc1ccc(Nc2nc(Nc3cc(C)c(N4CCC(N5CCN(C)CC5)CC4)cc3OC)ncc2Cl)c(NS(C)(=O)=O)c1`
Given back: 54

Asked: Query GI50 for `COc1cc(N2CCC(N3CCN(C)CC3)CC2)c(C)cc1Nc1ncc(Cl)c(Nc2cccc(OC)c2NS(C)(=O)=O)n1`
Given back: 83

Asked: Query GI50 for `CCCc1cc(Nc2ncc(Cl)c(Nc3ccc4nccnc4c3NS(C)(=O)=O)n2)c(OC)cc1N1CCC(N(C)C)CC1`
Given back: 36

Asked: Query GI50 for `CCCc1cc(Nc2ncc(Cl)c(Nc3cccc(OC)c3NS(C)(=O)=O)n2)c(OC)cc1N1CCC(N(C)C)CC1`
Given back: 54

###

Molecular target: Ba/F3 EGFR L858R/C797S mutants (Homo sapiens, UniProt P00533, C797S/L858R, cells depend on it)
Sequence (P00533 whole entry C797S/L858R): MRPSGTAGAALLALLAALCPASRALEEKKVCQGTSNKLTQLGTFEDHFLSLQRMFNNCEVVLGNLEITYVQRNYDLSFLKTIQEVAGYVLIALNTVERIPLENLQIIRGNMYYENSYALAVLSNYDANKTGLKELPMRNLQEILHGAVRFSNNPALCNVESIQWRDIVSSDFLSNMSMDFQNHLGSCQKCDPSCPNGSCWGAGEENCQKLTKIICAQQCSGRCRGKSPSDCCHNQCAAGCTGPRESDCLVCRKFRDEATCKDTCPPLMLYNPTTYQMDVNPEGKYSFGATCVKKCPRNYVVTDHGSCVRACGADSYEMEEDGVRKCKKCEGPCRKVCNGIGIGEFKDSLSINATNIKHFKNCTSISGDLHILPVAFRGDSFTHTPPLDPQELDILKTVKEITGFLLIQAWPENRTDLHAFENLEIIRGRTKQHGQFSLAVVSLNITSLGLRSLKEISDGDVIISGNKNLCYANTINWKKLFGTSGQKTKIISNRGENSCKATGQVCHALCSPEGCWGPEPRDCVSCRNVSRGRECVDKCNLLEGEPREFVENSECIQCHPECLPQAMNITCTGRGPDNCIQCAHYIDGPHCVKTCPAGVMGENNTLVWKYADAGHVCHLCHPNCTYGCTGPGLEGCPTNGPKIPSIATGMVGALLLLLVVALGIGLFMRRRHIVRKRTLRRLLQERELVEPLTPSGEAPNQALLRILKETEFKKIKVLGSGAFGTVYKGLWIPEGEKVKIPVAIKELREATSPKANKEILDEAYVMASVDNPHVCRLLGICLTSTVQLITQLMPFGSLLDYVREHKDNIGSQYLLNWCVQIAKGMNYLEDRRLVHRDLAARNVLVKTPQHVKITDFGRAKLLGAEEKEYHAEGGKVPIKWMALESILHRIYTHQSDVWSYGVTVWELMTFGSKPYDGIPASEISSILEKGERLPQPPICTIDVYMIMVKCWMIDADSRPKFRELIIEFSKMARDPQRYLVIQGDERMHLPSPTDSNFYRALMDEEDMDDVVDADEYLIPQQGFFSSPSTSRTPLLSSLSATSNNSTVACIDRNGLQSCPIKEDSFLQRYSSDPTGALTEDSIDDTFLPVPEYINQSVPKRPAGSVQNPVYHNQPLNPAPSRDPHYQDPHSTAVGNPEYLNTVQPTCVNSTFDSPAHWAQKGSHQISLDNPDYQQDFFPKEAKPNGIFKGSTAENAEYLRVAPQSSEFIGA
Experiment: CellTiter-Glo cell viability, Ba/F3 EGFR L858R/C797S cells
Type: cell-based, murine
Conditions: 72 hours, read-out: Ba/F3 EGFR mutant cell (IC50, nM) L/C
Field: GI50. Provide a value for each of the molecules that follow.
Please respond with the number in nM and leave the unit unwritten.

Asked: Query GI50 for COc1cc(N2CCC(N3CCN(C)CC3)CC2)c(C)cc1Nc1ncc(F)c(Nc2ccc3nccnc3c2NS(C)(=O)=O)n1 [Example A22]
Given back: 189

Asked: Query GI50 for CCc1cc(Nc2ncc(Br)c(Nc3ccc4nccnc4c3NS(C)(=O)=O)n2)c(OC)cc1N1CCC(N2CCCC2)CC1 [Example A33]
Given back: 57

Asked: Query GI50 for CCc1cc(Nc2ncc(Cl)c(Nc3ccc4nccnc4c3N(C)S(C)(=O)=O)n2)c(OC)cc1N1CCC(N2CCN(C)CC2)CC1 [Example A38]
Given back: 18

Asked: Query GI50 for CCc1cc(Nc2ncc(Cl)c(Nc3ccc(OC)c(OC)c3NS(C)(=O)=O)n2)c(OC)cc1N1CCC(N2CCOCC2)CC1 [Example C18]
Given back: 215

Asked: Query GI50 for COc1cc(N2CC[C@H](N3CCN(C)CC3)[C@H](F)C2)ccc1Nc1ncc(Cl)c(Nc2ccc3nccnc3c2NS(C)(=O)=O)n1 [Example A35]
Given back: 335

Asked: Query GI50 for COc1cc(N2CCC(N(C)C)CC2)c(C)cc1Nc1ncc(Br)c(Nc2ccc3nccnc3c2NS(C)(=O)=O)n1 [Example B1]
Given back: 64

Asked: Query GI50 for CCCc1cc(Nc2ncc(Cl)c(Nc3ccc4c(c3NS(C)(=O)=O)OCCO4)n2)c(OC)cc1N1CCC(N(C)C)CC1 [Example C13]
Given back: 61

Asked: Query GI50 for COc1cc(C2=CCNCC2)c(C)cc1Nc1ncc(Br)c(Nc2ccc3nccnc3c2NS(C)(=O)=O)n1 [Example D2]
Given back: 771
